Answer each item with its documented IC50.
# targetDesc: Fatty-acid amide hydrolase 1 (Rattus norvegicus, UniProt P97612)
# Sequence (P97612 whole entry): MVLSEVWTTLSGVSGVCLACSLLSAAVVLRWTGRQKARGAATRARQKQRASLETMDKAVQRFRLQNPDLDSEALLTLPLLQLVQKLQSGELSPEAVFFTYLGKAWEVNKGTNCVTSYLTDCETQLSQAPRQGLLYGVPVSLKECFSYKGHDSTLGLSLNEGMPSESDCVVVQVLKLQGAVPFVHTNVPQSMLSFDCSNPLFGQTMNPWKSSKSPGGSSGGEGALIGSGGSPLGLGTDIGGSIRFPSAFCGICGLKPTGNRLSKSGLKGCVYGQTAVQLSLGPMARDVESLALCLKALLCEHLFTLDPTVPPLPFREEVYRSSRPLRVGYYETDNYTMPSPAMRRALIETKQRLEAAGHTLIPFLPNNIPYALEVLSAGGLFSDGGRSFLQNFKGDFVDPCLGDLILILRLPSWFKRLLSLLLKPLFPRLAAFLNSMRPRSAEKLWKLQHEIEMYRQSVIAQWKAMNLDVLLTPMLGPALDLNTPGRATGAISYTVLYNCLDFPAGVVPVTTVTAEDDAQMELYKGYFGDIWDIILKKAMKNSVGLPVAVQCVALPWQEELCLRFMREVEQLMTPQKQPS
# experimentNotes: Inhibition of rat FAAH preincubated for 10 mins
Your answer should be a plain number; it is taken to be in nM.

### Prompt What value of IC50 has been reported for the following compound? `O=C(Nc1ncccn1)N1CCN(c2nc(-c3ccccc3)ns2)CC1`
### Response 57

### Prompt Can you share its IC50? I mean this compound: `O=C(Nc1ccncn1)N1CCN(c2nc(-c3ccccc3)ns2)CC1`
### Response 6.3

### Prompt // lookup IC50 for `O=C(Nc1cc(-c2ccccc2)n[nH]1)N1CCN(c2nc(-c3ccccc3)ns2)CC1`
### Response 638

====

# experimentNotes: Cmax in rat at 10 mg/kg, po
# Type: ADME, organism-based
# Parameters: dose 10 mg/kg, route oral
# studyConditions: in vivo
recordedMetric: Cmax (nM)
Could you give me the number in nM? Just the number is fine.

### Prompt # query: Cmax of entry `O=C(Nc1ccccc1)N1CCN(c2nc(-c3ccccc3)ns2)CC1`
### Response 301

====

# experimentNotes: Oral bioavailability in rat at 10 mg/kg
# Assay type: ADME, organism-based
# studyConditions: in vivo
recordedMetric: bioavailability (%)
Provide the reading as a plain figure in %.

### Prompt Suppose we examine the compound `O=C(Nc1ccccc1)N1CCN(c2nc(-c3ccccc3)ns2)CC1` ; what bioavailability value has been reported?
### Response 5

====

# experimentNotes: Cmax in rat plasma at 20 mg/kg, ip
# Format: ADME, organism-based
# Parameters: dose 20 mg/kg, route intraperitoneal
recordedMetric: Cmax (µM)
State the answer as a number, implicitly in µM.

### Prompt # input compound: `O=C(Nc1ccccc1)N1CCN(c2nc(-c3ccccc3)ns2)CC1` ; wanted: its Cmax
### Response 26.9

====

# targetDesc: Fatty-acid amide hydrolase 1 (Rattus norvegicus)
# Sequence (P97612 whole entry): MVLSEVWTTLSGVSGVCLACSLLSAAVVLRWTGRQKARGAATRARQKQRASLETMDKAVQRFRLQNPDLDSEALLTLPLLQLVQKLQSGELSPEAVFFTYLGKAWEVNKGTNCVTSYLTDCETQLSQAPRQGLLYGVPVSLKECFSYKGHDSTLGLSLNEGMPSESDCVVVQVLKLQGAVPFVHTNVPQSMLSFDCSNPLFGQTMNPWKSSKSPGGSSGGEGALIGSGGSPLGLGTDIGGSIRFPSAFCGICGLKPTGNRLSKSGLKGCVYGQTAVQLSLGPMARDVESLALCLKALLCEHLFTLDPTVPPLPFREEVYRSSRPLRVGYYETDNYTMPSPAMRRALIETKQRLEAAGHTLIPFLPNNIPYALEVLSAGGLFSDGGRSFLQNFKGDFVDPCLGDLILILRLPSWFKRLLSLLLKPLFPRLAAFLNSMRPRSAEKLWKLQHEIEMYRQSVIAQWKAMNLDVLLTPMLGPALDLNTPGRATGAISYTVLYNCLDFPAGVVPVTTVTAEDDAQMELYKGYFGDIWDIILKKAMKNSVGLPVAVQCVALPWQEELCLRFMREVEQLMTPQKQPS
# experimentNotes: Inhibition of rat FAAH preincubated for 10 mins
pIC50: −log10 of the molar value.
# pIC50 >= 7 gives Met, anything below gives Not met

### Prompt Is reported pIC50 greater than or equal to 7 here: `O=C(Nc1cccc2nsnc12)N1CCN(c2nc(-c3ccccc3)ns2)CC1`
### Response Met

### Prompt Hi team, for `O=C(Nc1nnn[nH]1)N1CCN(c2nc(-c3ccccc3)ns2)CC1` , is the recorded pIC50 at or above 7?
### Response Met

### Prompt Determine whether this compound has pIC50 no lower than 7: `O=C(Nc1cnccn1)N1CCN(c2nc(-c3ccccc3)ns2)CC1`
### Response Met

### Prompt Is pIC50 at least 7? Consider `O=C(Nc1ccc(Cl)nn1)N1CCN(c2nc(-c3ccccc3)ns2)CC1`
### Response Met

### Prompt # check: pIC50 of `COc1cc(NC(=O)N2CCN(c3nc(-c4ccccc4)ns3)CC2)ncn1` is greater than or equal to 7
### Response Met

### Prompt Identify whether the reported pIC50 of the following compound is 7 or greater: `O=C(Nc1ccon1)N1CCN(c2nc(-c3ccccc3)ns2)CC1`
### Response Met

### Prompt Is it the case that `N#Cc1cncnc1NC(=O)N1CCN(c2nc(-c3ccccc3)ns2)CC1` has pIC50 reaching or exceeding 7?
### Response Not met

### Prompt Is it the case that `O=C(Nc1ccncc1)N1CCN(c2nc(-c3ccccc3)ns2)CC1` has pIC50 reaching or exceeding 7?
### Response Met

### Prompt Evaluate `O=C(Nc1nccnn1)N1CCN(c2nc(-c3ccccc3)ns2)CC1` : pIC50 at minimum 7?
### Response Not met
